- system: T1, recombinant biotinylated human PAR2 extracellular domain (residues 1-75), N-terminal AviTag, C-terminal Flag … (human, UniProt P55085 26-75, biotin on the AviTag (enzymatic biotinylation))
- T1 construct: also called Bio-human-PAR2 ECD; human PAR2 ECD; not shown: N-terminal AviTag (Avidity LLC); C-terminal Flag and poly Histidine tags
- T1 sequence (P55085 26-75): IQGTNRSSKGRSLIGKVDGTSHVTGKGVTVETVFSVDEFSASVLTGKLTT
- test: HTRF competition with Par0067 IgG, scFv
Mark each entry criterion met if its Fold IC50 (pH 6.0 v pH 7.4) sits below 4 fold, and criterion not met for all others.

# count of solved cases: 5
| binder | labelClass |
| --- | --- |
| PaB670088 scFv (scFv, V domains shown, purified scFv; also called ZZ1ODR-B11) VH: EVQLLESGGGLVQPGGSLRLSCAASGFTFSSYAMNWVRQAPGKGLEWVSTISYSGHLIHYADHHHGRFTISRDNSKNTLYLQMNSLRAEDTAVYYCARINNDPMDVWGQGTLVTVSS VL: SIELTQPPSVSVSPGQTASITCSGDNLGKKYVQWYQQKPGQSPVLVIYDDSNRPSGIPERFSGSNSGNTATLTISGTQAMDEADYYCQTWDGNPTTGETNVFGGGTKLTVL | criterion met |
| PaB670075 scFv (scFv, V domains shown, purified scFv; also called ZZ1NHH-A05) VH: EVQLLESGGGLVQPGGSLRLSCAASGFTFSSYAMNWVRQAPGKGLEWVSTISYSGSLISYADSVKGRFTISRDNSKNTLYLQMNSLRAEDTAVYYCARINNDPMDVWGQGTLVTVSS VL: SIELTQPPSVSVSPGQTASITCSGDNLGKKYVQWYQQKPGQSPVLVIYDDSNRPSGIPERFSGSNSGNTATLTISGTQAMDEADYYCQHWDGNHHHGETNHFGGGTKLTVL | criterion not met |
| PaB670087 scFv (scFv, V domains shown, purified scFv; also called ZZ1ODR-B05) VH: EVQLLESGGGLVQPGGSLRLSCAASGFTFSSYAMNWVRQAPGKGLEWVSTISYHGSHISYADHHKHRFTISRDNSKNTLYLQMNSLRAEDTAVYYCARINNDPMDVWGQGTLVTVSS VL: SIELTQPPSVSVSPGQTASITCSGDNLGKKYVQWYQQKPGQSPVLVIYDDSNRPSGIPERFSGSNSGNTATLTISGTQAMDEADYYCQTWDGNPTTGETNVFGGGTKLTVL | criterion met |
| PaB670100 scFv (scFv, V domains shown, purified scFv) VH: EVQLLESGGGLVQPGGSLRLSCAASGFTFSSYAMNWVRQAPGKGLEWVSTISYHGHHISHAHHVHGRFTISRDNSKNTLYLQMNSLRAEDTAVYYCARINNDPMDVWGQGTLVTVSS VL: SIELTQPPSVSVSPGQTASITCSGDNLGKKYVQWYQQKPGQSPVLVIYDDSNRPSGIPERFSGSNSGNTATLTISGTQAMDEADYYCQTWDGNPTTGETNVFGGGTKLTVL | criterion met |
| PaB670103 scFv (scFv, V domains shown, purified scFv; also called ZZ1RCX-C09) VH: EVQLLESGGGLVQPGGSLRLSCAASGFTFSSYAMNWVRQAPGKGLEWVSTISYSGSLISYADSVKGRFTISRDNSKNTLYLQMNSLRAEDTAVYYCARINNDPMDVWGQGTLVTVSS VL: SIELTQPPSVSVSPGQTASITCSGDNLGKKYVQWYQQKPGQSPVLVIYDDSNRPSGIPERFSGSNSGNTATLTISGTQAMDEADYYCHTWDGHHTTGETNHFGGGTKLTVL | criterion not met |

Lookup: Confirm or reject: Fold IC50 (pH 6.0 v pH 7.4) of PaB670020 scFv (scFv, V domains shown, purified scFv; also called ZZ1IGD-D05) VH: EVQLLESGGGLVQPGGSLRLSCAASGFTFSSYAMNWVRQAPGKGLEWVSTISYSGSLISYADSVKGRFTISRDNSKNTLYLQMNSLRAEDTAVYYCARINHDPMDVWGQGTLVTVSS VL: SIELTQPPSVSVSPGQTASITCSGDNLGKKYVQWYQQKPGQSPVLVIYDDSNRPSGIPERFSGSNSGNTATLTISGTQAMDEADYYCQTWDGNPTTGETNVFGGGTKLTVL lies strictly below 4 fold
Found: criterion met

Lookup: Hi there! Is Fold IC50 (pH 6.0 v pH 7.4) for PaB670108 scFv (scFv, V domains shown, purified scFv; also called ZZ1RD3-H03) VH: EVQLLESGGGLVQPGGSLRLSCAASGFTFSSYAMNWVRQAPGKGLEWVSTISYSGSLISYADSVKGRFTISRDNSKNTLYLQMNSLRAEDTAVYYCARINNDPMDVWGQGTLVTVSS VL: SIELTQPPSVSVSPGQTASITCSGDNLGKKYVQWYQQKPGQSPVLVIYDDSNRPSGIPERFSGSNSGNTATLTISGTQAMDEADYYCQHWHGHHHTGETNVFGGGTKLTVL below 4 fold, do you know?
Found: criterion not met

Lookup: Lab log: compare recorded Fold IC50 (pH 6.0 v pH 7.4) with 4 fold; is it strictly lower for PaB670083 scFv (scFv, V domains shown, purified scFv; also called ZZ1OZB-H05) VH: EVQLLESGGGLVQPGGSLRLSCAASGFTFSSYAMNWVRQAPGKGLEWVSTIHHSGHLHSHADHVKGRFTISRDNSKNTLYLQMNSLRAEDTAVYYCARINNDPMDVWGQGTLVTVSS VL: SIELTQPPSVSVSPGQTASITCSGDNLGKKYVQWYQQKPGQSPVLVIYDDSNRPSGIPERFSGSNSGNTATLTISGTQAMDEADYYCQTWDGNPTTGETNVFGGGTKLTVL ?
Found: criterion met

Lookup: # TODO verify Fold IC50 (pH 6.0 v pH 7.4) < 4 fold strictly for this binder: PaB670104 scFv (scFv, V domains shown, purified scFv) VH: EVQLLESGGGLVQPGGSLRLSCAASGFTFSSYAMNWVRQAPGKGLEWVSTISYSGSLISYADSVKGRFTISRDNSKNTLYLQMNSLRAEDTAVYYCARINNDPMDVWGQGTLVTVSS VL: SIELTQPPSVSVSPGQTASITCSGDNLGKKYVQWYQQKPGQSPVLVIYDDSNRPSGIPERFSGSNSGNTATLTISGTQAMDEADYYCQHWDGHHHTGETNVFGGGTKLTVL
Found: criterion not met

Lookup: Consider PaB670097 scFv (scFv, V domains shown, purified scFv; also called ZZ1ODT-E11) VH: EVQLLESGGGLVQPGGSLRLSCAASGFTFSSYAMNWVRQAPGKGLEWVSTIHHSGHLHSYHHHVKGRFTISRDNSKNTLYLQMNSLRAEDTAVYYCARINNDPMDVWGQGTLVTVSS VL: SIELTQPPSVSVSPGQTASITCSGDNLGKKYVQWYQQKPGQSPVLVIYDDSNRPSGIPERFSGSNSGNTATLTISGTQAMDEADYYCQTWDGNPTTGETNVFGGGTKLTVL . Does its Fold IC50 (pH 6.0 v pH 7.4) lie strictly below 4 fold?
Found: criterion met
